assay: Binding affinity to N,N'-Ac2-L-Lys-D-Ala-D-Ala (unknown origin)
experimental_endpoint: Ka (×10⁵ /M)
Kindly provide the numeric value in ×10⁵ /M only, without the unit symbol.

Past entries and their recorded results:
| entry_smiles | Ka / ×10⁵ /M |
| --- | --- |
| CN[C@H](CC(C)C)C(=O)N[C@H]1C(=O)N[C@@H](CC(N)=O)C(=O)N[C@H]2C(=O)N[C@H]3C(=O)N[C@H](C(=O)N[C@H](C(=O)OC)c4cc(OC)cc(OC)c4-c4cc3ccc4OC)[C@H](O)c3ccc(c(Cl)c3)Oc3cc2cc(c3OC)Oc2ccc(cc2I)[C@H]1O | 1.3 |
| CN[C@H](CC(C)C)C(=O)N[C@H]1C(=O)N[C@@H](CC(N)=O)C(=O)N[C@H]2C(=O)N[C@H]3C(=O)N[C@H](C(=O)N[C@H](C(=O)OC)c4cc(OC)cc(OC)c4-c4cc3ccc4OC)[C@H](O)c3ccc(c(Cl)c3)Oc3cc2cc(c3OC)Oc2ccc(cc2OC)[C@H]1O | 1.2 |
| CN[C@H](CC(C)C)C(=O)N[C@H]1C(=O)N[C@@H](CC(N)=O)C(=O)N[C@H]2C(=O)N[C@H]3C(=O)N[C@H](C(=O)N[C@H](C(=O)OC)c4cc(OC)cc(OC)c4-c4cc3ccc4OC)[C@H](O)c3ccc(c(Cl)c3)Oc3cc2cc(c3OC)Oc2ccc(cc2O)[C@H]1O | 0.88 |

## Input Please give the measured Ka for this compound: "CN[C@H](CC(C)C)C(=O)N[C@H]1C(=O)N[C@@H](CC(N)=O)C(=O)N[C@H]2C(=O)N[C@H]3C(=O)N[C@H](C(=O)N[C@H](C(=O)OC)c4cc(OC)cc(OC)c4-c4cc3ccc4OC)[C@H](O)c3ccc(c(Cl)c3)Oc3cc2cc(c3OC)Oc2ccc(cc2C#N)[C@H]1O"
## Output 1.1

## Input Please give the measured Ka for this compound: "CN[C@H](CC(C)C)C(=O)N[C@H]1C(=O)N[C@@H](CC(N)=O)C(=O)N[C@H]2C(=O)N[C@H]3C(=O)N[C@H](C(=O)N[C@H](C(=O)OC)c4cc(OC)cc(OC)c4-c4cc3ccc4OC)[C@H](O)c3ccc(c(Cl)c3)Oc3cc2cc(c3OC)Oc2ccc(cc2B(O)O)[C@H]1O"
## Output 0.23

## Input Please give the measured Ka for this compound: "CN[C@H](CC(C)C)C(=O)N[C@H]1C(=O)N[C@@H](CC(N)=O)C(=O)N[C@H]2C(=O)N[C@H]3C(=O)N[C@H](C(=O)N[C@H](C(=O)OC)c4cc(OC)cc(OC)c4-c4cc3ccc4OC)[C@H](O)c3ccc(c(Cl)c3)Oc3cc2cc(c3OC)Oc2ccc(cc2N(C)C)[C@H]1O"
## Output 0.34

## Input Please give the measured Ka for this compound: "CN[C@H](CC(C)C)C(=O)N[C@H]1C(=O)N[C@@H](CC(N)=O)C(=O)N[C@H]2C(=O)N[C@H]3C(=O)N[C@H](C(=O)N[C@H](C(=O)OC)c4cc(OC)cc(OC)c4-c4cc3ccc4OC)[C@H](O)c3ccc(c(Cl)c3)Oc3cc2cc(c3OC)Oc2ccc(cc2N=[N+]=[N-])[C@H]1O"
## Output 1.2

----------
tested on: Staphylococcus aureus; test: Antimicrobial activity against Staphylococcus aureus ATCC 25923; assay type: functional
experimental_endpoint: MIC
Please answer using a numeric value trailed by its unit.

Past entries and their recorded results:
| entry_smiles | result |
| --- | --- |
| N[C@H]1C(=O)N[C@@H]2Cc3ccc(c(Cl)c3)Oc3cc4cc(c3O)Oc3ccc(cc3Cl)[C@@H](O)[C@@H]3NC(=O)[C@H](NC(=O)[C@@H]4NC(=O)[C@@H](NC2=O)c2cc(O)cc(c2)Oc2cc1ccc2O)c1ccc(O)c(c1)-c1c(O)cc(O)cc1[C@@H](C(=O)O)NC3=O | 1.6 µg/mL |
| CN[C@H](CC(C)C)C(=O)N[C@H]1C(=O)N[C@@H](CC(N)=O)C(=O)N[C@H]2C(=O)N[C@H]3C(=O)N[C@H](C(=O)N[C@H](C(=O)O)c4cc(O)cc(O)c4-c4cc3ccc4O)[C@H](O)c3ccc(c(Cl)c3)Oc3cc2cc(c3O)Oc2ccc(cc2Cl)[C@H]1O | 0.8 µg/mL |
| COC(=O)[C@H]1NC(=O)[C@H]2NC(=O)[C@H](NC(=O)[C@@H]3NC(=O)[C@H]4NC(=O)[C@@H](Cc5ccc(c(Cl)c5)Oc5cc3cc(c5OC)Oc3ccc(cc3Cl)[C@H]2O)NC(=O)[C@H](N)c2ccc(OC)c(c2)Oc2cc(OC)cc4c2)c2ccc(OC)c(c2)-c2c(OC)cc(OC)cc21 | 3.2 µg/mL |

Consider the additional molecule presented here.
## Input Observed MIC on Staphylococcus aureus for "CN[C@H](CC(C)C)C(=O)N[C@H]1C(=O)N[C@@H](CC(N)=O)C(=O)N[C@H]2C(=O)N[C@H]3C(=O)N[C@H](C(=O)N[C@H](C(=O)OC)c4cc(OC)cc(OC)c4-c4cc3ccc4OC)[C@H](O)c3ccc(c(Cl)c3)Oc3cc2cc(c3OC)Oc2ccc(cc2Cl)[C@H]1O" , please.
## Output 1.25 µg/mL

----------
test: Binding affinity to N,N'-Ac2-L-Lys-D-Ala-D-Ala (unknown origin)
experimental_endpoint: Ka (×10⁵ /M)
Kindly provide the numeric value in ×10⁵ /M only, without the unit symbol.

Past entries and their recorded results:
| entry_smiles | Ka, ×10⁵ /M |
| --- | --- |
| CN[C@H](CC(C)C)C(=O)N[C@H]1C(=O)N[C@@H](CC(N)=O)C(=O)N[C@H]2C(=O)N[C@H]3C(=O)N[C@H](C(=O)N[C@H](C(=O)O)c4cc(O)cc(O)c4-c4cc3ccc4O)[C@H](O)c3ccc(c(Cl)c3)Oc3cc2cc(c3O)Oc2ccc(cc2Cl)[C@H]1O | 1.4 |
| CN[C@H](CC(C)C)C(=O)N[C@H]1C(=O)N[C@@H](CC(N)=O)C(=O)N[C@H]2C(=O)N[C@H]3C(=O)N[C@H](C(=O)N[C@H](C(=O)OC)c4cc(OC)cc(OC)c4-c4cc3ccc4OC)[C@H](O)c3ccc(c(Cl)c3)Oc3cc2cc(c3OC)Oc2ccc(cc2)[C@H]1O | 0.71 |
| CN[C@H](CC(C)C)C(=O)N[C@H]1C(=O)N[C@@H](CC(N)=O)C(=O)N[C@H]2C(=O)N[C@H]3C(=O)N[C@H](C(=O)N[C@H](C(=O)O)c4cc(O)cc(O)c4-c4cc3ccc4O)[C@H](O)c3ccc(c(Cl)c3)Oc3cc2cc(c3O)Oc2ccc(cc2Br)[C@H]1O | 1.1 |

## Input Please give the measured Ka for this molecule: "CN[C@H](CC(C)C)C(=O)N[C@H]1C(=O)N[C@@H](CC(N)=O)C(=O)N[C@H]2C(=O)N[C@H]3C(=O)N[C@H](C(=O)N[C@H](C(=O)OC)c4cc(OC)cc(OC)c4-c4cc3ccc4OC)[C@H](O)c3ccc(c(Cl)c3)Oc3cc2cc(c3OC)Oc2ccc(cc2C(F)(F)F)[C@H]1O"
## Output 1.2

----------
system: Staphylococcus aureus; test: Antimicrobial activity against vancomycin-sensitive Staphylococcus aureus ATCC 25923 after 24 hrs by microtiter plate assay; type: functional; conditions: ATCC 25923, 24 h
experimental_endpoint: MIC (µg/mL)
Kindly provide the numeric value in µg/mL only, without the unit symbol.

Past entries and their recorded results:
| entry_smiles | assay_system | reading_unit | MIC |
| --- | --- | --- | --- |
| CN[C@H](CC(C)C)C(=O)N[C@H]1C(=O)N[C@@H](CC(N)=O)C(=O)N[C@H]2C(=O)N[C@H]3C(=O)N[C@H](C(=O)N[C@H](C(=O)OC)c4cc(OC)cc(OC)c4-c4cc3ccc4OC)[C@H](O)c3ccc(c(Cl)c3)Oc3cc2cc(c3OC)Oc2ccc(cc2O)[C@H]1O | Staphylococcus aureus | µg/mL | 5 |
| CN[C@H](CC(C)C)C(=O)N[C@H]1C(=O)N[C@@H](CC(N)=O)C(=O)N[C@H]2C(=O)N[C@H]3C(=O)N[C@H](C(=O)N[C@H](C(=O)O)c4cc(O)cc(O)c4-c4cc3ccc4O)[C@H](O)c3ccc(c(Cl)c3)Oc3cc2cc(c3O)Oc2ccc(cc2Br)[C@H]1O | Staphylococcus aureus | µg/mL | 2.5 |
| CN[C@H](CC(C)C)C(=O)N[C@H]1C(=O)N[C@@H](CC(N)=O)C(=O)N[C@H]2C(=O)N[C@H]3C(=O)N[C@H](C(=O)N[C@H](C(=O)OC)c4cc(OC)cc(OC)c4-c4cc3ccc4OC)[C@H](O)c3ccc(c(Cl)c3)Oc3cc2cc(c3OC)Oc2ccc(cc2)[C@H]1O | Staphylococcus aureus | µg/mL | 5 |

Consider the additional molecule presented here.
## Input Please give the measured MIC for this molecule: "CN[C@H](CC(C)C)C(=O)N[C@H]1C(=O)N[C@@H](CC(N)=O)C(=O)N[C@H]2C(=O)N[C@H]3C(=O)N[C@H](C(=O)N[C@H](C(=O)OC)c4cc(OC)cc(OC)c4-c4cc3ccc4OC)[C@H](O)c3ccc(c(Cl)c3)Oc3cc2cc(c3OC)Oc2ccc(cc2Br)[C@H]1O"
## Output 2.5
